test system: UMB1949 (TSC2-deficient); test: relative viability vs DMSO (fraction); higher = less cytotoxic; conditions: 8 nM; serum: 0.1% FBS; 72 h;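 further: renal angiomyolipoma cell lines screened in 384-well plates, viability normalized per plate to DMSO-treated cells, each plate carrying 50 nM rapamycin and 1 µM staurosporine controls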
Counter-ions that a name gives are not always drawn.
quantityMeasured: relative viability
// print number alone

Look up relative viability for this molecule: CNC(=O)c1cc(Oc2ccc(NC(=O)Nc3cc(C(C)(C)C)nn3-c3ccc4ncccc4c3)c(F)c2)ccn1 [DCC-2036]
1.32

Look up relative viability for this molecule: CC[C@@]1(O)C(=O)OCc2c1cc1n(c2=O)Cc2cc3c(CN(C)C)c(O)ccc3nc2-1 [Topotecan Hydrochloride]
0.692

Look up relative viability for this molecule: CO[C@@H](C(=O)N1Cc2[nH]nc(NC(=O)c3ccc(N4CCN(C)CC4)cc3)c2C1)c1ccccc1
0.261

Look up relative viability for this molecule: COC1=CC(c2cc3ccccc3[nH]2)=N/C1=C\c1[nH]c(C)cc1C [Obatoclax Mesylate]
1

Look up relative viability for this molecule: C=C1C[C@@H]2[C@H](CC[C@]3(C)C(=O)CC[C@@H]23)[C@@]2(C)C=CC(=O)C=C12 [Exemestane]
1.08

Look up relative viability for this molecule: Cn1c(Nc2ccc(C(F)(F)F)cc2)nc2cc(Oc3ccnc(-c4ncc(C(F)(F)F)[nH]4)c3)ccc21 [RAF265]
1.19

Look up relative viability for this molecule: Nc1nc(Cl)nc2c1ncn2[C@@H]1O[C@H](CO)[C@@H](O)[C@@H]1F [Clofarabine]
1.05

Look up relative viability for this molecule: CCOc1ccn(-c2ccc(F)cc2)c(=O)c1C(=O)Nc1ccc(Oc2ccnc(N)c2Cl)c(F)c1
0.867

Look up relative viability for this molecule: O=C1Nc2ccccc2/C1=C1/Nc2ccccc2C1=O [Indirubin]
0.941

Look up relative viability for this molecule: CCS(=O)(=O)c1cccc(-c2cc(C(=O)NC3CCN(C)CC3)c(C)c3[nH]c4ncc(C)cc4c23)c1 [TAK-901]
0.0574

Look up relative viability for this molecule: Cc1cnc(NC(=O)Nc2cc(Br)c(C)cc2OC[C@@H]2CNCCO2)cn1
0.27

Look up relative viability for this molecule: CC(C)c1cc(C(C)C)c(CC(=O)NS(=O)(=O)Oc2c(C(C)C)cccc2C(C)C)c(C(C)C)c1 [Avasimibe]
1.08

Look up relative viability for this molecule: CCCCc1nc2cc(/C=C/C(=O)NO)ccc2n1CCN(CC)CC [SB939]
1.03

Look up relative viability for this molecule: CO[C@H]1C[C@@H]2CC[C@@H](C)[C@@](O)(O2)C(=O)C(=O)N2CCCC[C@H]2C(=O)O[C@H]([C@H](C)C[C@@H]2CC[C@@H](OP(C)(C)=O)[C@H](OC)C2)CC(=O)[C@H](C)/C=C(\C)[C@@H](O)[C@@H](OC)C(=O)[C@H](C)C[C@H](C)/C=C/C=C/C=C/1C [Deforolimus(MK-8669)]
0.899
